# experimental_system: T1, human CD137-Fc (human, biotin-labeled)
# T1 construct: if 90 already holds the Fc, drop the second piece; also called biotin-labeled human CD137 fused to human IgG1 Fc fragment; biotin-human CD137-Fc; not shown: human IgG1 Fc fragment
# T1 sequence (chain, as listed by the source): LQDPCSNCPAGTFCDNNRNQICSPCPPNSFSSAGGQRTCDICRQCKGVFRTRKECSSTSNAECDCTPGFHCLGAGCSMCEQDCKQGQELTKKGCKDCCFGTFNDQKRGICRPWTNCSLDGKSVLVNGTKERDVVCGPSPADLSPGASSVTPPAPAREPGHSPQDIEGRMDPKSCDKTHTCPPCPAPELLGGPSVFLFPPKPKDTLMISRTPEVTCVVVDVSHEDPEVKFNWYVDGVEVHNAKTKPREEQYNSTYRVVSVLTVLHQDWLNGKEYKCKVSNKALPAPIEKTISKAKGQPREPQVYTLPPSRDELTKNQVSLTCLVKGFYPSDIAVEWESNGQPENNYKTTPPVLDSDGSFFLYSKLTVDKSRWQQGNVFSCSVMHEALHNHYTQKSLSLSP
# assay_name: bead ELISA on biotin-human CD137-Fc, 0 pmol free CD3e peptide
attribute_measured: ELISA signal
Field format: numeric only.

The reported value for dBBDu196 (antibody, V domains shown, Human IgG1; light chain GLS3000 (kappa)) VH: QVQLVESGGGLVQPGRSLRLSCAASGFTFSNAWMHWVRQAPGKGLEWVAQIKDRGNAYNAYYAESVKGRFTISRDDSKNSIYLQMNSLKTEDTAVYYCHYVHYASASTVLPAFGVDAWGQGTTVTVSS VL: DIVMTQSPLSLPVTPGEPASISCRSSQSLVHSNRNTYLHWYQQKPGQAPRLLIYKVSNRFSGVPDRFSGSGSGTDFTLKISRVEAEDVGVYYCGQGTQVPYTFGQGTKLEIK in terms of ELISA signal is 33100

The reported value for dBBDu222 (antibody, V domains shown, Human IgG1; light chain GLS3000 (kappa)) VH: QVQLVESGGGLVQPGRSLRLSCAASGFTISSAWMHWVRQAPGKGLEWVAQIKDRANGYAAYYAPSVKGRFTISRDDSKNSIYLQMNSLKTEDTAVYYCRYVHYATAYDGFYGFGVDAWGQGTTVTVSS VL: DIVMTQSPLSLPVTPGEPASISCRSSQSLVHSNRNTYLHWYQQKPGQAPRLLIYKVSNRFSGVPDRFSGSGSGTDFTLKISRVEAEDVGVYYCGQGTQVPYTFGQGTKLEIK in terms of ELISA signal is 7190

The reported value for dBBDu193 (antibody, V domains shown, Human IgG1; light chain GLS3000 (kappa)) VH: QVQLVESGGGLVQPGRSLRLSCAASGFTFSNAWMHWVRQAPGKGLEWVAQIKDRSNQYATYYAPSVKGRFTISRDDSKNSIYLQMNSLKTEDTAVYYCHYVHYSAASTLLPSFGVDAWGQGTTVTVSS VL: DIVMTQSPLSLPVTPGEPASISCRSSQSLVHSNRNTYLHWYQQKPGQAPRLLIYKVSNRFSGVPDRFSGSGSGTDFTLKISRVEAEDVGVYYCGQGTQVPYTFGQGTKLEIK in terms of ELISA signal is 18200

The reported value for DXDU01_3#072 (antibody, V domains shown, Human IgG1; light chain GLS3000 (kappa); also called dBBDu122) VH: QVQLVESGGGLVQPGRSLRLSCAASGFTFSNAWMHWVRQAPGKGLEWVAQIKDRSQLYAAYYAPSVKGRFTISRDDSKNSIYLQMNSLKTEDTAVYYCHYVHYASASTVLGAYGVDAWGQGTTVTVSS VL: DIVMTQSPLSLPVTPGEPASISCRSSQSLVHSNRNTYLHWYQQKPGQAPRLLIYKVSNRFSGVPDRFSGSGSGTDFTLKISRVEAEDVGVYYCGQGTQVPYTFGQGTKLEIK in terms of ELISA signal is 2700

The reported value for dBBDu204 (antibody, V domains shown, Human IgG1; light chain GLS3000 (kappa)) VH: QVQLVESGGGLVQPGRSLRLSCAASGFTFSNAWMHWVRQAPGKGLEWVAQIKDRSNNYATYYAESVKGRFTISRDDSKNSIYLQMNSLKTEDTAVYYCHYVHYASASTVLPAFGVDAWGQGTTVTVSS VL: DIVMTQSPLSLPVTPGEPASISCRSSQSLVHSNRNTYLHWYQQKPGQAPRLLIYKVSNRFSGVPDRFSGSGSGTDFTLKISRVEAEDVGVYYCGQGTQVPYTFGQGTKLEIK in terms of ELISA signal is 43700

The reported value for DXDU01_3#051 (antibody, V domains shown, Human IgG1; light chain GLS3000 (kappa); also called dBBDu127) VH: QVQLVESGGGLVQPGRSLRLSCAASGFTFSNAWMHWVRQAPGKGLEWVAQIKDRGQQYNAYYAPSVKGRFTISRDDSKNSIYLQMNSLKTEDTAVYYCHYVHYASASSVLPGYGVDAWGQGTTVTVSS VL: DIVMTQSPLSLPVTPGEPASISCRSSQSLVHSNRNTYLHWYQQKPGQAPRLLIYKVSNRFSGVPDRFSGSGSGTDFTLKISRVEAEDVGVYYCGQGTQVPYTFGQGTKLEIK in terms of ELISA signal is 3230
